Where do these numbers come from? They come from ChEMBL document CHEMBL3988442.

# System: Wolbachia pipientis
# PROCEDURE DETAILS: Anti-Wolbachia Cell-Based Screen
# Format: functional
# Parameters: scale not given: in the data most compounds retested in dose-response had high values
# TEST CONTEXT: 5 µM
Hit rate of the full screen: of about 48,000 compounds, about 13,000 (27%) showed an effect of 50% or more. This is one part of the list.
Recorded Percent Effect, one value per entry.
MEASUREMENT TYPE: Percent Effect

* O=C(Cc1ccc2c(c1)CCO2)N1CCN(c2cnccn2)CC1 | -10.75%
* CN(C)c1cc(CNC(=O)Nc2nccs2)ccn1 | 125%
* Cc1cnc(C(=O)N2C[C@H]3CC[C@@H]2CN(S(=O)(=O)N(C)C)C3)cn1 | -4.38%
* Cc1cc(C)n(CC2CCCN2C(=O)c2ccc(N(C)C)nn2)n1 (configuration not stated) | 107%
* Cc1cc(C)n(CC2CCCN2C(=O)c2ccnc(N(C)C)c2)n1 (configuration not stated) | 141.4%
* CCCOC1CCCN(C(=O)c2[nH]nc(C)c2Br)C1 (configuration not stated) | -6.367%
* CCSc1ncc(-c2cc(C3CCC3)nc(N)c2C#N)cn1 | 87.05%
* Cc1nnc(N2CCN(C(=O)NC3CC3)CC2)c(C(N)=O)c1C | -22.89%
* Cn1cc(CN2CCc3nc4sccc4c(=O)n3CC2)cn1 | 107.2%
* Cc1nn(C)cc1CN1CCc2nc3sccc3c(=O)n2CC1 | 108%
* O=C(c1ccc2c(c1)OCO2)N1CCN2C(=O)NC[C@H]2C1 | 6.694%
* O=C(Cc1ccc2c(c1)CCO2)Nc1cccnc1-n1cncn1 | -24.6%
* O=c1c2ccccc2nc2n1CCN(Cc1cccs1)CC2 | -4.199%
* COCC(=O)N(C)Cc1ccc(F)c(F)c1 | 111.3%
* O=C(c1ccc(Cl)cc1)N1CCC(N2CCNC2=O)CC1 | 109.7%
* CCSc1ncc(CN2CCN(c3ccc(C#N)cc3)C(=O)C2)cn1 | -0.09513%
* CC(C)(C)c1n[nH]cc1CN1CCc2nc3ccsc3c(=O)n2CC1 | -17.99%
* NC(=O)CN(Cc1cccc(Oc2ccccc2)c1)C(=O)C1CC1 | 0.4693%
* CN(C)c1cc(CNC(=O)Nc2ccc(S(C)(=O)=O)nc2)ccn1 | -6.104%
* COc1ccc(C)cc1NC(=O)CNc1ccn(CC(N)=O)n1 | -13.27%
* CN(C)S(=O)(=O)N1CC[C@H]2OCC[C@@]2(COc2cccnc2)C1.O=C(O)C(F)(F)F | 7.883%
* Cc1cc(C)n(CC2CCCN2C(=O)c2cnccn2)n1 (configuration not stated) | 101.9%
* Cn1cc(CN2CCCN(C(=O)c3cc(Cl)cn3C)CC2)cn1 | -17.2%
* Cc1cc(C)n(CC2CCCN2C(=O)c2c[nH]c(=O)c(Cl)c2)n1 (configuration not stated) | 130%
* Cc1cc(C)n(CC2CCCN2C(=O)c2cnn(C)c2C2CC2)n1 (configuration not stated) | -2.201%
* Cc1ccc(Cl)c2ccc(NC(CO)CO)nc12 | -18.64%
* COc1ccc(C)cc1NC(=O)c1c(C)cn(C)c1CC(=O)O | 106.8%

###

# Lookup of reported Percent Effect keyed by entry
# System: Wolbachia pipientis
# PROCEDURE DETAILS: Anti-Wolbachia Cell-Based Screen
# Type: functional
# Parameters: scale not given: in the data most compounds retested in dose-response had high values
# TEST CONTEXT: 5 µM
In all, about 48,000 compounds went through this assay and about 13,000 (27%) showed an effect of 50% or more. The list shows a part of the results.
MEASUREMENT TYPE: Percent Effect (%)

* O=C1CC(c2ccncc2)C2(CCN(CCO)CC2)N1 (stereo not given) | -11.83
* COCCCN1CC2(CCN(C(=O)Cc3csc(C)n3)CC2)CC1=O | -10.63
* Cc1oc(C(=O)O)cc1S(=O)(=O)Nc1ccc(Cl)c(Cl)c1 | -3.012
* CC1(C)CN(C(=O)c2ncc(F)cc2F)CCC1(O)CN1CCOCC1 (stereo not given) | -6.83
* COCCCN1CC2(CCN(Cc3ncc[nH]3)CC2)CC1=O | 10.5
* Cc1cc(CS(=O)(=O)N(C)C(C)c2ccc(Cl)cc2)on1 (stereo not given) | 1.246
* O=C(O)C(F)(F)F.O=C1CC(c2ccncc2)C2(CCN(C(=O)c3cccs3)CC2)N1 (stereo not given) | 1.39
* COc1cccc(N2CCN(C(=O)c3ccc(=O)n(C)c3)CC2)c1 | -5.711
* O=C(NCCNc1ncccn1)C1CCN(c2ncccn2)CC1 | -3.346
* CN1C(=O)CC(c2ccccc2)C12CCN(c1ncccn1)CC2 (stereo not given) | -22.26
* Cc1ccc(NS(=O)(=O)c2cc(C(=O)O)oc2C)c(Br)c1 | 0.9383
* CN1CC2(CCN(C(=O)c3ccc4nccnc4c3)CC2)CC1=O | -6.042
* COCCCN1CC2(CCN(C(=O)c3ncc(F)cc3F)CC2)CC1=O | 74.04
* Cc1ccccc1OCC(=O)N1CCOC2(CNCCOC2)C1 (stereo not given) | -22.9
* CCc1ccc(CN2CCC3(CC2)NC(=O)CC3c2ccncc2)o1.O=C(O)C(F)(F)F.O=C(O)C(F)(F)F (stereo not given) | -16.11
